system: six V600E BRAF melanoma cell lines; test: Screening of recombinant RTK ligands for ability to confer resistance to BRAFi (PLX4720) or MEKi (PD184352) (Table 4); type: cell-based, human; parameters: scale not given here; details: Colo 829, PLX4720 - 2 uM, ligand 25 ng/ml
Recorded ability of recombinant RTK ligand to confer resistance by entry
Response field accepts a number only; no unit should be typed.

Please review the following examples before continuing.
molecule	recorded-number
VEGF-C (protein, UniProt P49767 112-227, looked up) Vascular endothelial growth …: AHYNTEILKSIDNEWRKTQCMPREVCIDVGKEFGVATNTFFKPPCVSVYRCGGCCNSEGLQCMNTSTSYLSKTLFEITVPLSQGPKPVTISFANHTSCRCMSKLDVYRQVHSIIRR	0.92
Ephrin-A4 (protein, UniProt P52798 26-170, looked up) Ephrin-A4: LRHVVYWNSSNPRLLRGDAVVELGLNDYLDIVCPHYEGPGPPEGPETFALYMVDWPGYESCQAEGPRAYKRWVCSLPFGHVQFSEKIQRFTPFSLGFEFLPGETYYYISVPTPESSGQCLRLQVSVCCKERKSESAHPVGSPGES	1.00
GDNF (protein, UniProt P39905 78-211, looked up) Glial cell line-derived …: SPDKQMAVLPRRERNRQAAAANPENSRGKGRRGQRGKNRGCVLTAIHLNVTDLGLGYETKEELIFRYCSGSCDAAETTYDKILKNLSRNRRLVSDKVGQACCRPIAFDDDLSFLDDNLVYHILRKHSAKRCGCI	1.09

*Q* Suppose we examine the molecule flt-3 ligand (FL) (protein, UniProt P49771 27-235, looked up) Fms-related tyrosine kinase 3 …: TQDCSFQHSPISSDFAVKIRELSDYLLQDYPVTVASNLQDEELCGGLWRLVLAQRWMERLKTVAGSKMQGLLERVNTEIHFVTKCAFQPPPSCLRFVQTNISRLLQETSEQLVALKPWITRQNFSRCLELQCQPDSSTLPPPWSPRPLEATAPTAPQPPLLLLLLLPVGLLLLAAAWCLHWQRTRRRTPRPGEQVPPVPSPQDLLLVEH ; what ability of recombinant RTK ligand to confer resistance value has been reported?
*A* 1.05

*Q* Entry BDNF (protein, UniProt P23560 19-247, looked up) Neurotrophic factor BDNF …: APMKEANIRGQGGLAYPGVRTHGTLESVNGPKAGSRGLTSLADTFEHVIEELLDEDQKVRPNEENNKDADLYTSRVMLSSQVPLEPPLLFLLEEYKNYLDAANMSMRVRRHSDPARRGELSVCDSISEWVTAADKKTAVDMSGGTVTVLEKVPVSKGQLKQYFYETKCNPMGYTKEGCRGIDKRHWNSQCRTTQSYVRALTMDSKKRIGWRFIRIDTSCVCTLTIKRGR : reported ability of recombinant RTK ligand to confer resistance = ?
*A* 0.95
